- testedSystem: recombinant human S1P3 (Homo sapiens, UniProt Q99500)
- Sequence (Q99500 whole entry): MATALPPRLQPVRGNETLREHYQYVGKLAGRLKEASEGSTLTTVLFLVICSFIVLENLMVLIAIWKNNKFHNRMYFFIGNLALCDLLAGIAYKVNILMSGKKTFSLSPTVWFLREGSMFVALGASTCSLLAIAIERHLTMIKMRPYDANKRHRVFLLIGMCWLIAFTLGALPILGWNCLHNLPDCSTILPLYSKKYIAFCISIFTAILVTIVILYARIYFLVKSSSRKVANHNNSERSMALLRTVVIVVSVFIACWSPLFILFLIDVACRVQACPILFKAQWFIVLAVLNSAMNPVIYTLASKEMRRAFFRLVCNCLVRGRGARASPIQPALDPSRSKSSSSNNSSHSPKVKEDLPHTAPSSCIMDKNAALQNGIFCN
- protocolNotes: competitive [^32P]S1P binding assay, S1P3
Provide the reported IC50 of each item.

Tell me its IC50 given O=C(O)C1CCN(Cc2ccc(-c3noc(-c4ccc(OCCF)c(C(F)(F)F)c4)n3)cc2)CC1 [Compound 28d] as the entry.
> 1000 nM

Could you please provide reported IC50 for O=C(O)C1CN(Cc2ccc(-c3noc(-c4ccc(OCCF)c(C(F)(F)F)c4)n3)cc2)C1 [Compound 28c] ? Thanks!
> 1000 nM

Please indicate IC50 recorded for O=C(O)C1CN(Cc2ccc(-c3noc(-c4ccc(OCCF)cc4)n3)cc2)C1 [Compound 28b]
> 1000 nM
